Origin of the recorded values: patent US8586751B2

target system: human recombinant Btk (Homo sapiens)
Sequence (Q06187 whole entry): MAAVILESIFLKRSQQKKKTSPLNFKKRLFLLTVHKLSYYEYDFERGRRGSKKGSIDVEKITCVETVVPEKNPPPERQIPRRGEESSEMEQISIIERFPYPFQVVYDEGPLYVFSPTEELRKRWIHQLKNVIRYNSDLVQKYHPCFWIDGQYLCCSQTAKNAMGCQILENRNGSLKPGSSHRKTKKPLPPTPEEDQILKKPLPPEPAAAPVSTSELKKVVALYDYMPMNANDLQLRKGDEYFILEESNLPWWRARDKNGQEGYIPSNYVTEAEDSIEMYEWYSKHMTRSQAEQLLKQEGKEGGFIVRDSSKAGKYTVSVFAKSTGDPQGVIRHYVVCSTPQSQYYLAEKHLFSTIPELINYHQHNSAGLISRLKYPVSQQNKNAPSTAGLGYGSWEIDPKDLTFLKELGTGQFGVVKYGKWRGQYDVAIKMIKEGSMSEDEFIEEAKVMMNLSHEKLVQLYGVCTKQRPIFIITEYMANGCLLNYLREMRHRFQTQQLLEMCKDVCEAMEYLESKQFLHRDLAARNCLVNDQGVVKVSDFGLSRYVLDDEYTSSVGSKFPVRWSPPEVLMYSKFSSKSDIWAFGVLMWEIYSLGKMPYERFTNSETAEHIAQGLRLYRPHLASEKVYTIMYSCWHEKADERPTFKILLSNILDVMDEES
experimental protocol: Human Recombinant Btk Enzyme Assay (LLE_BTK)
Entries and their log10(IC50)
Use the decimal logarithm of IC50 (nM).

Please report log10(IC50) for the following molecule: CC(=O)N[C@@H]1CCCN(c2nc(Nc3ccc(N4CCN(C)CC4)cc3)c(C(N)=O)cc2F)C1
1.00

***
Give a short answer stating reported log10(IC50) for Cc1ccc(NC(=O)N[C@@H]2CCCN(c3ccc(C(N)=O)c(Nc4ccccc4)n3)C2)cc1C .
3.11

Look up and report measured log10(IC50) for this entry: CN(C)CCc1ccc(Nc2nc(N3CCC[C@@H](NC(=O)Nc4nncs4)C3)c(F)cc2C(N)=O)cc1
0.30
